These measurements were taken from PubChem BioAssay (NCI).

system: NCI/ADR-RES ovarian; test: NCI-60 one-dose screen, 48 h; conditions: 10 µM unless noted
About 83,000 compounds went through this panel and 20% of them were active in at least one assay; those are over-represented in the sample as a whole. Activity calls are given as the source filed them. Rule for the calls: active = growth percent below 10; inactive = the rest.
Classes used: active, inactive

compound	discrete.label
CC(C)(C)n1nnnc1C(Nc1nccs1)c1cc2cccc3ccc4cccc1c4c32 (stereo not given)	inactive
CS(=O)(=O)c1nccc(-c2c(-c3ccc(F)c(OCc4ccc(F)cc4)c3)nc3sccn23)n1	inactive
CCC(=O)Nc1ccc(-c2nc(-c3cccc(O)c3)c(-c3ccnc(Br)c3)[nH]2)cc1	inactive
O=c1c2ccccc2nc(COc2ccccc2)n1/N=C/C=C/c1ccccc1	inactive
O=C1c2c(c3c4ccc(Br)cc4oc3c3[nH]c4ccccc4c23)C(=O)N1CCO	inactive
Cc1ccc(NC(=O)c2ccc(CN3CCN(C)CC3)c(C(F)(F)F)c2)cc1Oc1ccc(-c2[nH]nc3ncnc(N)c23)cc1	inactive
C=C(C)C(=O)O[C@H]1C[C@@]2(C)OC(=CC2=O)/C(C)=C\[C@H]2OC(=O)C(=C)[C@H]12	inactive
COC1=C(c2ccccc2)C(=O)C(OC)=C(c2ccccc2)C1=O	inactive
O=C1c2c(c3c4cccnc4[nH]c3c3ccc4ccccc4c23)C(=O)N1CCN1CCCCC1	inactive
CCc1ccc(NC(=O)N[C@@H](Cc2cccc(F)c2)C(=O)N[C@@H]2C(=O)N3CCC[C@H]3C(=O)N3CCCC[C@H]3C(=O)N[C@@H](CO)C(=O)N3C[C@H](C)C[C@H]3C(=O)O[C@H]2C)c(F)c1	inactive
Clc1ccc(-c2nc3ccc(/C(=N\N=C\c4ccccc4)c4ccccc4)cc3[nH]2)cc1	inactive
CSc1nccc(-c2c(-c3ccc(F)c(OCc4ccc(F)cc4)c3)nc3sccn23)n1	inactive
CCc1ccc(NC(=O)N[C@@H](Cc2cccc(F)c2)C(=O)N[C@@H]2C(=O)N3CCC[C@H]3C(=O)N3CCCC[C@H]3C(=O)N[C@@H](C)C(=O)N3C[C@H](C)C[C@H]3C(=O)O[C@H]2C)c(F)c1	inactive
C/C=C/C=C1\C[C@H]2CO[C@H](O2)C1=O	inactive
Fc1ccc(-c2cc3nc(C(Cl)Cl)nc(-c4cccs4)n3n2)cc1	active
NC(=O)c1c(NC(=O)c2cccc(C(F)(F)F)c2F)sc2c1CCC(=O)C2	inactive
CCCC(=O)NC(c1cccnc1)c1ccc2c(C)ccnc2c1O (stereo not given)	active
O=C1[C@@H]2Cc3c([nH]c4ccccc34)[C@H](c3c(Cl)cccc3Cl)N2C(=O)CN1C1CCN(Cc2c(F)cccc2F)CC1	inactive
O=C1CSC(=O)N1Cc1cc2ccccc2nc1Cl	inactive
O=C(Nc1cccc(Cl)c1)Nc1nc2ccc([N+](=O)[O-])cc2s1	active
Cn1c2ccccc2c2c3c(c4c5ccc(Br)cc5oc4c21)C(=O)N(O)C3=O	inactive
CCN1CCN(Cc2ccc(C(=O)Nc3nc4ccc(Oc5ccnc(C(=O)NC)c5)cc4s3)cc2C(F)(F)F)CC1	inactive
N#C/C(=C\c1ccc(Cl)cc1Cl)C(N)=O	inactive
Oc1ccc(-c2nnc(SCc3ccc(O)c4ncccc34)o2)cc1	active
O=C(Nc1ccc(Cl)cc1)Nc1nc2ccc([N+](=O)[O-])cc2s1	active
Cn1cc(-c2nn3cc(-c4cccnc4)nc3s2)c2ccccc21	inactive
COc1ccc(S(=O)(=O)NCCCNc2nccc(-n3cnc4ccccc43)n2)cc1	inactive
O=C(NCCCNc1cc(-c2cn(-c3ccccc3)nc2-c2cccc(O)c2)ccn1)Nc1cc(C(F)(F)F)cc(C(F)(F)F)c1	inactive
CCn1c2ccc(/C=N/NS(=O)(=O)CCN(C)C)cc2c2cc(/C=N/NS(=O)(=O)CCN(C)C)ccc21	inactive
C=CCn1c(SCC(=O)Nc2cccc(C(=O)/C=C/c3ccc(OC)c(OC)c3)c2)nc2ccccc2c1=O	inactive
IP(CCCSc1n(Cc2ccc3ccccc3c2)c(-c2ccccc2)c(-c2ccccc2)[n+]1Cc1ccc2ccccc2c1)(c1ccccc1)(c1ccccc1)c1ccccc1	inactive
Cn1cc2c(c1)-c1c(sc3nc(-c4ccc(NC(=O)Nc5cc(C(C)(C)C)on5)cc4)cn13)CC2	inactive
CC(c1ccccc1)N1C(=O)/C(=C/c2csc(C#N)n2)SC1=S (stereo not given)	inactive
CC[C@]12C=CCN3CC[C@]4(C(=C(C(=O)OC)C1)Nc1cc5c(cc14)[C@@H]1[C@H](O5)[C@@H](O)[C@@]4(CC)CC(C(=O)OC)=C5Nc6cc(OC)ccc6[C@@]56CCN1[C@@H]46)[C@@H]32	inactive
O=C(Nc1ccc(F)cc1)c1cc(-c2ccc(F)cc2F)ccc1O	active
